Target: Solute carrier family 2, facilitated glucose transporter member 1 (Homo sapiens) (UniProt P11166)
Sequence (P11166 whole entry): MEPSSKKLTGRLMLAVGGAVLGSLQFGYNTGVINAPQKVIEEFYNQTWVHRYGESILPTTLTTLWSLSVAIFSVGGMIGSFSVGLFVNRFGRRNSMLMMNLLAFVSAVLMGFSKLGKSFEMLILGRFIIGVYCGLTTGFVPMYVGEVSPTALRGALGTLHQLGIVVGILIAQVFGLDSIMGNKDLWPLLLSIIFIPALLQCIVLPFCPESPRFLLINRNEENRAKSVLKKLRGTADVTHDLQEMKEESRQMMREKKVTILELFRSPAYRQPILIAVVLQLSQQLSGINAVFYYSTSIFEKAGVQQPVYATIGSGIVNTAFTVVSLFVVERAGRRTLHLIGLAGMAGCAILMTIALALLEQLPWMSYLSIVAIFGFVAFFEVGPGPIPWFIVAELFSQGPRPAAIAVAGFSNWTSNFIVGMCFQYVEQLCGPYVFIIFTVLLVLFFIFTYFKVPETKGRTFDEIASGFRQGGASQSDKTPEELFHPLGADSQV
Test: ST_JUDE_LEISH: Cytotoxicity at 2uM final concentration against transgenic Leishmania Mexicana promastigotes LmGLUT1 that are glucose transport deficient and complemented with the human glucose transporter GLUT1. Activity is measured by DNA content using SYBR green in vitro
Assay type: functional
value.kind: inhibition (%)
// return numeric value only (unit: %, not printed)

Below, each entry is followed by its recorded inhibition result.
[
  {
    "mol.smiles": "CCn1cc2c3c(cc(C(=O)N[C@@H](Cc4ccccc4)[C@H](O)CNC4CCOCC4)cc31)N(C)S(=O)(=O)CC2",
    "inhibition (%)": 0.41
  },
  {
    "mol.smiles": "CC(C)N(CC(=O)c1ccc(O)c(C(=O)O)c1)Cc1ccccc1",
    "inhibition (%)": 3.53
  }
]

Here is another compound to look at.
Suppose we examine the compound CC1(C)NC(N)=NC(=N)N1OCCSCc1cc(Cl)sc1Cl ; what inhibition value has been reported?
6.6

* * *

Target: Solute carrier family 2, facilitated glucose transporter member 1 (Homo sapiens)
Assay: ST_JUDE_LEISH: Cytotoxicity at 2uM final concentration against transgenic Leishmania Mexicana promastigotes LmGLUT1 that are glucose transport deficient and complemented with the human glucose transporter GLUT1. Activity is measured by DNA content using SYBR green in vitro
Type: functional
Item-by-item account of inhibition
// return numeric value only (unit: %, not printed)

Below, each entry is followed by its recorded inhibition result.
[
  {
    "compound": "O=c1cc(NCCC2CC=CCN2Cc2ccc(Cl)c(Cl)c2)[nH]c2ccccc12 (stereo not given)",
    "units": "%",
    "inhibition": 1
  },
  {
    "compound": "CS(=O)(=O)c1ccc(CNCc2cccc(-c3cccc(-c4nc5ccccc5[nH]4)c3)c2)cc1",
    "units": "%",
    "inhibition": 2.3
  },
  {
    "compound": "O=C(Nc1ccc(-c2cccc(-c3nc4cc(F)ccc4[nH]3)c2)cc1)c1cnn2cccnc12",
    "units": "%",
    "inhibition": 2.14
  },
  {
    "compound": "O=C(C=Cc1ccc(Cl)c(Cl)c1)NCCCCCN1CCCC(CCCNC(=O)/C=C/c2ccccc2)C1 (stereo not given)",
    "units": "%",
    "inhibition": 3.2
  },
  {
    "compound": "O=C(NCC1CN(Cc2ccc(N3CCCC3)o2)CCCO1)c1ccc2c(c1)OCO2 (stereo not given)",
    "units": "%",
    "inhibition": -0.31
  }
]

Suppose we examine the compound O=C(NCCCCCN1CCC(c2c[nH]c3ccccc23)CC1)c1ccc(-c2cccnc2)cc1 ; what inhibition value has been reported?
1.86

Suppose we examine the compound COc1ccc2nccc([C@@H](O)CN3CCC(NCc4ccc5scnc5c4)CC3)c2c1 ; what inhibition value has been reported?
3.81

Suppose we examine the compound CC(C)c1ccc2c(c1)c(SC(C)(C)C)c(CC(C)(C)C#N)n2Cc1ccc(Cl)cc1 ; what inhibition value has been reported?
3.18

Suppose we examine the compound c1ccc2[nH]c(-c3ccc(-c4ccc(CNCCc5ccncc5)cc4)s3)nc2c1 ; what inhibition value has been reported?
8.39

Suppose we examine the compound Oc1ccc(Cc2cc(Oc3c(I)cc(CCc4ncc[nH]4)cc3I)ccc2O)cc1 ; what inhibition value has been reported?
0.12

* * *

Target: Glucose transporter (Leishmania mexicana)
Experiment: ST_JUDE_LEISH: Cytotoxicity at 2uM final concentration against transgenic Leishmania Mexicana promastigotes LmGT2 that are glucose transport deficient and complemented with the L. Mexicana glucose transporter 2. Activity is measured by DNA content using SYBR green in vitro
Type: functional
value.kind: inhibition
# include the unit after the value

Below, each entry is followed by its recorded inhibition result.
[
  {
    "compound": "N=C(N)Nc1nc(-c2cccc(NC(=O)NCCc3c[nH]c4ccc(OCc5ccccc5)cc34)c2)cs1",
    "inhibition": "0.56%"
  },
  {
    "compound": "O=C(Cc1c[nH]cn1)Nc1ccc(-c2ccc(-c3nc4cc(C(F)(F)F)ccc4[nH]3)s2)cc1",
    "inhibition": "-0.01%"
  },
  {
    "compound": "O=C(Nc1ccc(-c2cccc(-c3nc4cc(F)ccc4[nH]3)c2)cc1)c1cnn2cccnc12",
    "inhibition": "0.84%"
  },
  {
    "compound": "CN(C)CCN(C)Cc1cccc(-c2ccc3c(Nc4cc(O)c(Cl)cc4F)ccnc3c2)c1",
    "inhibition": "-2.95%"
  },
  {
    "compound": "C[C@@H](Oc1cc(-n2cnc3ccc(NC(=O)CCN4CCCCC4)cc32)sc1C(N)=O)c1ccccc1Cl",
    "inhibition": "-0.04%"
  },
  {
    "compound": "COc1ccc2nccc(N3C[C@H]4C[C@@H]3CN4CCNCc3ccc4c(n3)NC(=O)CS4)c2n1",
    "inhibition": "-1.32%"
  }
]

Suppose we examine the compound CCOc1ccc2[nH]c(-c3ccccc3)cc(=NN=Cc3ccncc3)c2c1 ; what inhibition value has been reported?
-0.25%

Suppose we examine the compound CN(C)S(=O)(=O)c1cc(-c2ccc3nccc(-c4cccc(S(N)(=O)=O)c4)c3c2)cnc1N ; what inhibition value has been reported?
7.13%

Suppose we examine the compound CCc1ccc(CN2CCC(CNC(=O)c3cc(-c4cccc(C(F)(F)F)c4)cs3)C2)cc1 (centres undefined) ; what inhibition value has been reported?
-1.61%

Suppose we examine the compound CCN(CC)CCCC(C)Nc1c2ccc(Cl)cc2nc2ccc(OC)cc12 (centres undefined) ; what inhibition value has been reported?
3.71%

Suppose we examine the compound COc1ccc(C2C(C(=O)Nc3cc(C)ccc3OC)c3ccccc3C(=O)N2C)cc1 (centres undefined) ; what inhibition value has been reported?
1.74%

Suppose we examine the compound CC(C)c1ccc(CN2CCC(CNC(=O)c3cc(-c4ccc(N(C)C)cc4)cs3)C2)cc1 (centres undefined) ; what inhibition value has been reported?
2.27%

Suppose we examine the compound CCN(CC)CCN(Cc1ccc(-c2ccc(Cl)s2)cc1)C(=O)Cn1c(CCc2cccc(F)c2F)nc(=O)c2ccccc21 ; what inhibition value has been reported?
2.15%

Suppose we examine the compound COc1ccc(Nc2nc(N/N=C/c3ccc(-c4ccc([N+](=O)[O-])cc4)o3)nc(Nc3ccccc3)n2)cc1 ; what inhibition value has been reported?
9.94%

* * *

Item-by-item account of inhibition
Molecular target: Glucose transporter (Leishmania mexicana) (UniProt O61059)
Assay: ST_JUDE_LEISH: Cytotoxicity at 2uM final concentration against transgenic Leishmania Mexicana promastigotes LmGT2 that are glucose transport deficient and complemented with the L. Mexicana glucose transporter 2. Activity is measured by DNA content using SYBR green in vitro
Format: functional
// return numeric value only (unit: %, not printed)

[
  {
    "compound": "CC[C@H](C)CNC(=O)c1cncc(-c2cccc(CNCCCc3ccccc3)c2)c1",
    "units": "%",
    "inhibition": 4.25
  },
  {
    "compound": "Cc1cc(-c2cccc(CNCc3ccccc3)c2)ccc1S(=O)(=O)NCCN1CCCC1",
    "units": "%",
    "inhibition": 5.69
  },
  {
    "compound": "Cn1nc(C(F)(F)F)cc1-c1ccc(C(=O)Nc2ccc3c(c2)CNCC3(C)C)s1",
    "units": "%",
    "inhibition": 2.34
  },
  {
    "compound": "O=C(COc1cnc2ccccc2n1)Nc1ccccc1Sc1ccc(Cl)cc1",
    "units": "%",
    "inhibition": 3.2
  },
  {
    "compound": "CC(C)N1CCC(Oc2ccc(CN3CCN(C(c4ccccc4)c4ccc(Cl)cc4)CC3)cc2)CC1 (configuration not stated)",
    "units": "%",
    "inhibition": 2.61
  },
  {
    "compound": "Cc1noc(C)c1-c1cccc(C(=O)NC2CCN(CCNC(=O)C(c3ccccc3)c3ccccc3)CC2)c1",
    "units": "%",
    "inhibition": 1.64
  }
]

Suppose we examine the compound c1ccc(CN2CCC(NCc3ccc(-c4cccc(CNC5CCCC5)c4)cc3)CC2)cc1 ; what inhibition value has been reported?
0.89

Suppose we examine the compound COc1cc(Nc2nccc(N3CCC(NC(=O)Nc4cccc(C(C)=O)c4)C3)n2)cc(OC)c1OC (configuration not stated) ; what inhibition value has been reported?
3.92

Suppose we examine the compound Cc1ccc2c(Cc3cnc(N)nc3N)cc(C)c(N)c2n1 ; what inhibition value has been reported?
-0.09

Suppose we examine the compound CCN(CC)Cc1ccc2c(=O)cc(CCc3cccc(F)c3F)n(CC(=O)N(Cc3ccc(-c4ccc(C(F)(F)F)cc4)cc3)C(C)C)c2c1 ; what inhibition value has been reported?
-0.21

Suppose we examine the compound CC(=O)N1N=C(c2ccc(Cl)cc2)Sc2c1nc(C1CCCCC1)n2C(C)=O ; what inhibition value has been reported?
-0.39

* * *

Target: Glucose transporter (Leishmania mexicana)
Assay: ST_JUDE_LEISH: Cytotoxicity at 2uM final concentration against transgenic Leishmania Mexicana promastigotes LmGT2 that are glucose transport deficient and complemented with the L. Mexicana glucose transporter 2. Activity is measured by DNA content using SYBR green in vitro
Format: functional
Item-by-item account of inhibition
// return numeric value only (unit: %, not printed)

Below, each entry is followed by its recorded inhibition result.
[
  {
    "compound": "CC(C)(C)c1ccc(CN(C[C@@H](O)CNS(=O)(=O)c2cc(Cl)cc(Cl)c2)C(C)(C)C)cc1",
    "units": "%",
    "inhibition": -0.02
  },
  {
    "compound": "O=C(Nc1ccc2[nH]c(-c3ccc4nc(NC(=O)C5CCCCC5)sc4c3)nc2c1)C1CCCCC1",
    "units": "%",
    "inhibition": -1.71
  },
  {
    "compound": "Cc1ccc(Sc2ccc(NC(=O)CN3CCN(C(=O)c4ccco4)CC3)cc2)cc1C",
    "units": "%",
    "inhibition": 6.7
  }
]

Suppose we examine the compound COc1cc(-n2cnc3cc(-c4ccc(Cl)cc4)sc3c2=O)ccc1OCCN1CCC(c2cccc(NC(C)=O)c2)CC1 ; what inhibition value has been reported?
3.05

Suppose we examine the compound O=C(Nc1cccc(N2CCC(NCCCc3ccncc3)CC2)c1)c1cccc(C(F)(F)F)c1 ; what inhibition value has been reported?
4.83

Suppose we examine the compound CCCCc1cc(Cc2cnc(N)nc2N)cc(OC)c1OC ; what inhibition value has been reported?
0.98

Suppose we examine the compound O=C(CCC1CCCC1)N(Cc1ccc(-c2ccc(CNCCc3ccccn3)cc2)cc1)CC1CCCCN1 (stereo not given) ; what inhibition value has been reported?
1.88

Suppose we examine the compound Fc1cccc(COc2ccc(Nc3ncnc4ccc(C#C[C@H]5CCCN5)cc34)cc2Cl)c1 ; what inhibition value has been reported?
2.2

Suppose we examine the compound O=C(Nc1ccc2c(c1)CCN2C1CCN(Cc2csc3ccccc23)C1)c1ccco1 (stereo not given) ; what inhibition value has been reported?
1.45

Hey, just so you know, these numbers are from ChEMBL document CHEMBL3433997.
